test system: Salmonella typhi; assay: Antibacterial activity against Bacillus typhi after 24 hrs by NCCLS two fold broth microdilution method; assay type: functional, Salmonella enterica subsp. enterica serovar Typhi; conditions: Salmonella enterica
RESULT_TYPE: MIC (µg/mL)
Give bare numbers, in µg/mL.

Record excerpt, results attached:
>  <INPUT_SMILES>
CCCCCCCCCCn1c(CS(=O)(=O)c2ccc(N)cc2)nc2ccccc21

>  <EXPERIMENTAL_RESULT>
512

$$$$
>  <INPUT_SMILES>
CC(=O)Nc1ccc(S(=O)(=O)Cc2nc3ccccc3n2Cc2ccccc2F)cc1

>  <EXPERIMENTAL_RESULT>
64

$$$$
>  <INPUT_SMILES>
CCCCCCCCCCCCCCCCCCn1c(CS(=O)(=O)c2ccc(NC(C)=O)cc2)nc2ccccc21

>  <EXPERIMENTAL_RESULT>
512

$$$$
>  <INPUT_SMILES>
Nc1ccc(S(=O)(=O)Cc2nc3ccccc3n2Cc2ccc(Cl)cc2)cc1

>  <EXPERIMENTAL_RESULT>
512

$$$$
>  <INPUT_SMILES>
CCCCCCCCn1c(CS(=O)(=O)c2ccc(NC(C)=O)cc2)nc2ccccc21

>  <EXPERIMENTAL_RESULT>
512

$$$$

Take each entry in turn and give its MIC.
1. CCCCCn1c(CS(=O)(=O)c2ccc(NC(C)=O)cc2)nc2ccccc21
2. CCCCCCn1c(CS(=O)(=O)c2ccc(NC(C)=O)cc2)nc2ccccc21

[out]
1: 32; 2: 512

Take each entry in turn and give its MIC.
1. CC(=O)Nc1ccc(S(=O)(=O)Cc2nc3ccccc3n2Cc2cccc(Cl)c2)cc1
2. CC(=O)Nc1ccc(S(=O)(=O)Cc2nc3ccccc3n2Cc2cccc(F)c2)cc1
3. CCCCCCCCCCCCCCCCCCn1c(CS(=O)(=O)c2ccc(N)cc2)nc2ccccc21
4. CC(=O)Nc1ccc(S(=O)(=O)Cc2nc3ccccc3n2Cc2ccc(Cl)cc2Cl)cc1

[out]
1: 128; 2: 128; 3: 512; 4: 4

Take each entry in turn and give its MIC.
1. Nc1ccc(S(=O)(=O)Cc2nc3ccccc3n2Cc2ccc(Cl)c(Cl)c2)cc1
2. CC(=O)Nc1ccc(S(=O)(=O)Cc2nc3ccccc3n2Cc2ccc(F)cc2)cc1
3. Nc1ccc(S(=O)(=O)Cc2nc3ccccc3n2Cc2ccccc2Cl)cc1
4. CCCCCCCn1c(CS(=O)(=O)c2ccc(N)cc2)nc2ccccc21
5. Nc1ccc(S(=O)(=O)Cc2nc3ccccc3n2Cc2ccc(Cl)cc2Cl)cc1

[out]
[64, 16, 16, 512, 128]

Take each entry in turn and give its MIC.
1. CCCCCCCCn1c(CS(=O)(=O)c2ccc(N)cc2)nc2ccccc21
2. Nc1ccc(S(=O)(=O)Cc2nc3ccccc3n2Cc2ccc(F)cc2)cc1

[out]
512
16

====

For each record, write down the corresponding MIC.
test system: Micrococcus luteus; assay: Antibacterial activity against Micrococcus luteus ATCC 4698 after 24 hrs by NCCLS two fold broth microdilution method; format: functional; settings: NCTC 2665, 24 h
Numbers only, in µg/mL.

Record excerpt, results attached:
>  <INPUT_SMILES>
CCCCCCCCCCCCCCCCCCn1c(CS(=O)(=O)c2ccc(NC(C)=O)cc2)nc2ccccc21

>  <EXPERIMENTAL_RESULT>
512

$$$$
>  <INPUT_SMILES>
Nc1ccc(S(=O)(=O)Cc2nc3ccccc3n2CCCCCn2c3ccccc3c3ccccc32)cc1

>  <EXPERIMENTAL_RESULT>
512

$$$$
>  <INPUT_SMILES>
CC(=O)Nc1ccc(S(=O)(=O)Cc2nc3ccccc3n2Cc2ccc(Cl)cc2Cl)cc1

>  <EXPERIMENTAL_RESULT>
128

$$$$
>  <INPUT_SMILES>
CC(=O)Nc1ccc(S(=O)(=O)Cc2nc3ccccc3n2Cc2ccc(Cl)c(Cl)c2)cc1

>  <EXPERIMENTAL_RESULT>
256

$$$$
>  <INPUT_SMILES>
CCCCCCCn1c(CS(=O)(=O)c2ccc(NC(C)=O)cc2)nc2ccccc21

>  <EXPERIMENTAL_RESULT>
512

$$$$

Take each entry in turn and give its MIC.
1. Nc1ccc(S(=O)(=O)Cc2nc3ccccc3n2Cc2ccc(F)cc2)cc1
2. CCCCCCCCCCn1c(CS(=O)(=O)c2ccc(N)cc2)nc2ccccc21

[out]
[512, 512]
